Test system: KURAMOCHI
Test: drug sensitivity score (DSS2) on cancer cell count; higher = more sensitive; extreme values may be limits of the assay
Settings: co-cultured fibroblast: WI38; 72 h
quantity.name: drug sensitivity score (DSS)
Provide the reading as a plain figure in DSS.

Task: Using the record for `O=C(c1cc(Cc2n[nH]c(=O)c3ccccc23)ccc1F)N1CCN(C(=O)C2CC2)CC1` , report its drug sensitivity score.
Result: 7.3

Task: Entry `C[C@@H]1CN(C(=O)c2ccc(NC(=O)c3cc(O[C@H](C)c4c(Cl)ccc(F)c4Cl)c(N)nn3)cc2)C[C@H](C)N1` has what drug sensitivity score?
Result: 1

Task: Look at this compound and give its reported drug sensitivity score. `O=C(NOCCO)c1ccc2cncn2c1Nc1ccc(I)cc1F`
Result: 0

Task: Would you kindly share the measured drug sensitivity score for `C[C@]1(c2nc3c(C(N)=O)cccc3[nH]2)CCCN1` ?
Result: 0

Task: Any idea what drug sensitivity score was measured for `Cc1ccc(-c2cc(C(F)(F)F)nn2-c2ccc(S(N)(=O)=O)cc2)cc1` ?
Result: 0

Task: Look at this compound and give its reported drug sensitivity score. `CNC(=O)c1ccc(C)c(-n2c(C)cc(OCc3ccc(F)cc3F)c(Br)c2=O)c1`
Result: 0

Task: Reported drug sensitivity score for CC(O)(CS(=O)(=O)c1ccc(F)cc1)C(=O)Nc1ccc(C#N)c(C(F)(F)F)c1 (centres undefined) [Bicalutamide] : what is it?
Result: 0

Task: Would you mind telling me what drug sensitivity score value was observed for `NC(=O)Nc1cc(-c2cccc(F)c2)sc1C(=O)N[C@H]1CCCNC1` ?
Result: 6.6

Task: Data request, read-out drug sensitivity score, for `CNc1nc(Nc2cn(C(C)(C)C#N)nc2C)ncc1C(F)(F)F`
Result: 0

###

System: KURAMOCHI
Test: drug sensitivity score (DSS2) on cancer cell count; higher = more sensitive; extreme values may be limits of the assay
Details: co-cultured fibroblast: BJHTERT; 72 h
quantity.name: drug sensitivity score (DSS)
Unit DSS implied. Number only.

Task: I'd like to know its drug sensitivity score. The compound in question is `Cc1cc(F)c(C(=O)Nc2cccc(-c3nncn3C(C)C)n2)cc1-n1cnc(C2CC2)c1`
Result: 0

Task: Looking for the measured drug sensitivity score of `CCOCc1nc2c(N)nc3ccccc3c2n1CC(C)(C)O` , can you help?
Result: 0

Task: Please report the recorded drug sensitivity score for `O=C(NC1CCNCC1)c1n[nH]cc1NC(=O)c1c(Cl)cccc1Cl` .
Result: 17.3

Task: I am curious: what drug sensitivity score value has been reported for `Cc1c2oc3c(C)ccc(C(=O)N[C@@H]4C(=O)N[C@H](C(C)C)C(=O)N5CCC[C@H]5C(=O)N(C)CC(=O)N(C)[C@@H](C(C)C)C(=O)O[C@@H]4C)c3nc-2c(C(=O)N[C@@H]2C(=O)N[C@H](C(C)C)C(=O)N3CCC[C@H]3C(=O)N(C)CC(=O)N(C)[C@@H](C(C)C)C(=O)O[C@@H]2C)c(N)c1=O` ?
Result: 25.7

Task: Form field: reported drug sensitivity score of `CC1(C)CCC(c2ccc(Cl)cc2)=C(CN2CCN(c3ccc(C(=O)NS(=O)(=O)c4ccc(N[C@H](CCN5CCOCC5)CSc5ccccc5)c(S(=O)(=O)C(F)(F)F)c4)cc3)CC2)C1`
Result: 2.4

Task: Quick one: drug sensitivity score of CC(C)[C@H]1C(=O)N[C@@H](CCCNC(=N)N)C(=O)NCC(=O)N[C@@H](CC(=O)O)C(=O)N[C@H](Cc2ccccc2)C(=O)N1C [Cilengitide] ?
Result: 5.8

Task: Look up drug sensitivity score for this compound: CCN(CC)CCCC(C)Nc1c2ccc(Cl)cc2nc2ccc(OC)cc12 (centres undefined)
Result: 13.8

Task: Report drug sensitivity score for `Cc1cc(Nc2nc(N[C@@H](C)c3ncc(F)cn3)ncc2Cl)[nH]n1` please.
Result: 0.1

Task: What value of drug sensitivity score has been reported for the following compound? `Cn1cc(CNCC2CCN(c3ncc(C(=O)NO)cn3)CC2)c2ccccc21`
Result: 15

Task: # drug sensitivity score lookup, item `COC(=O)c1ccc2c(c1)NC(=O)/C2=C(\Nc1ccc(N(C)C(=O)CN2CCN(C)CC2)cc1)c1ccccc1`
Result: 8.2

Task: Value lookup for drug sensitivity score; key = `COc1ccc2[nH]cc(/C=C3\C(=O)Nc4ccc(NC(=O)CCN5CCCCC5)cc43)c2c1`
Result: 7.6

Task: What does the data say about its drug sensitivity score? Entry: `Nc1ccccc1NC(=O)c1ccc(CNc2nccc(-c3cccnc3)n2)cc1`
Result: 10.4

Task: Which drug sensitivity score reading was recorded for the compound `O=C(Nc1cccnc1)N1CCC(Cc2cccc(Oc3ccc(C(F)(F)F)cn3)c2)CC1` ?
Result: 0.5

Task: Reported drug sensitivity score for `O=C(Nc1ccncc1)C(=O)c1cn(Cc2ccc(Cl)cc2)c2ccccc12` : what is it?
Result: 13.1

Source listed as the supplement of paper PMC12420376.
